Entry source: ChEMBL document CHEMBL1201862

System: NCI-H460
Assay: NCI tumour cell line growth inhibition, 48 h
Calls of active or inactive are those of the source. Rule as the data show it: active = GI50 up to about 1.1 µM and inactive = higher.
Kindly state GI50 for each of the entries shown.

compound N#CC(NNC(=O)Cc1ccccc1)c1ccc([N+](=O)[O-])cc1 (stereo unspecified) , GI50 observed: > 100 µM (inactive)

# GI50 (compound: COc1cccc2[s+]snc12 ) is 68.4 µM (inactive)

Item: COc1ccc(/C=N\N2C(=O)Cc3ccccc32)cc1 | GI50: > 100 µM (inactive)

Query COc1ccccc1NC(=O)CC(=O)N1N=C(N2c3ccccc3Sc3ccccc32)CC1c1ccccc1 (stereo unspecified) yields GI50 of > 100 µM (inactive)

Per the record, N#CC1CC(c2ccccc2)Nc2cc(Cl)ccc2N1 (stereo unspecified) has GI50 of 35.4 µM (inactive)

Looking up Cc1cc2c(=O)cc(-c3ccncc3)oc2c(C(N)=O)c1C , I see its GI50 listed as 87.9 µM (inactive)

* * *

Test system: OVCAR-4
Test: NCI tumour cell line growth inhibition, 48 h
Activity calls are given as the source filed them. Rule as the data show it: active = GI50 up to about 1.1 µM and inactive = higher.
// allowed return values: 1 (yes) for active, 0 (no) for inactive

Per the records of this test, what outcome belongs to CC1(C)C2CCC1(C)[C@H](n1c(=O)n([C@@H]3CC4CCC3(C)C4(C)C)c(=O)n([C@@H]3CC4CCC3(C)C4(C)C)c1=O)C2 ?
0 (no)

Given CC(=O)NNC1=NN(C(C)=O)C2(S1)C(=O)Nc1ccc(C)cc12 (centres undefined) , state the outcome it received in this test.
0 (no)

What call does the record list for Cc1cccc(CC(C)(C)C)c1NC(=O)C(=O)C(C(=O)c1ccc2ccccc2c1)C1OC(=O)c2ccccc21 (centres undefined) ?
0 (no)

Please let me know the test result on file for CC(C)(CO)N1CCN(C(S)=Nc2ccccc2)CC1 .
0 (no)

I would be grateful if you could indicate the recorded call for Cc1c(F)c(N)c2c(=O)cc(-c3ccc(NC(=O)C(N)CCCNC(=N)N)c(F)c3)oc2c1F (centres undefined) .
1 (yes)

Tell me the recorded outcome of this test for CC(=O)NCC1OC2COC(c3ccccc3)OC2C2N=C(c3ccccc3)OC12 (centres undefined) .
0 (no)

Name the outcome recorded for COc1ccc(NC(=O)C(=O)C(C(=O)c2ccccc2)C2OC(=O)c3ccccc32)c([N+](=O)[O-])c1 (centres undefined) in the assay.
0 (no)

Fill in: this test's call for N#CC(C(=O)C(N)=O)c1ccccc1Cl (centres undefined) is ___
0 (no)

What classification did c1ccc(C(=NNc2nc3ccccc3[nH]2)c2ccccn2)nc1 end up with in this test?
1 (yes)

* * *

Tested on: SW-620
Test: NCI tumour cell line growth inhibition, 48 h
Activity calls are given as the source filed them. Rule as the data show it: active = GI50 up to about 1.1 µM and inactive = higher.
// allowed return values: active, inactive

Field: outcome | Entry: Nc1c(S(=O)(=O)O)cc2cc(S(=O)(=O)O)ccc2c1/N=N/c1ccc(-c2ccc(/N=N/c3c(N)c(S(=O)(=O)O)cc4cc(S(=O)(=O)O)ccc34)c(S(=O)(=O)O)c2)cc1
inactive

Short answer needed: outcome of this test for COCCOC(=O)c1c(C)[n+]([O-])c2cc(Cl)c(Cl)cc2[n+]1[O-] ?
inactive

What did the test return for c1ccc2c(c1)nc1n2CCCn2ccnc2-1 ?
inactive

Test call for this compound, please: COc1ccc(NC(=O)C(=O)C(C(=O)c2ccccc2)C2OC(=O)c3ccccc32)c([N+](=O)[O-])c1 (centres undefined)
inactive

Dear colleague, could you share the recorded outcome for Cc1ccc2c(=O)cc(-c3cccc(F)c3)[nH]c2n1 when you have a moment?
active

Write down the call the test reported for this compound. Item: COC(=O)c1c(C)cccc1C1CN=NC12Cc1ccc(C)c(C)c1C2=O (centres undefined)
inactive

# outcome recorded in this test, key = [N-]=[N+]=NC1CC(n2ccc(N)nc2=O)OC1COP(=O)(O)OP(=O)(O)OP(=O)(O)O (centres undefined)
inactive

What classification did CCOC(=O)CCC(NC(=O)c1ccc(NC(OC)c2nc3cc(C(F)(F)F)ccc3nc2-c2ccccc2)cc1)C(=O)OCC (centres undefined) end up with in this test?
inactive

So what was the verdict on CCCN1C(=O)/C(=C\c2ccc(OC)c(OC)c2)S/C1=N\c1ccccc1 in this test?
inactive
